- target-entity: RSV F on RSV-A2 virus (Respiratory Syncytial Virus (RSV-A2), UniProt P03420 26-574)
- experiment-notes: cell-based or functional assay
Please provide measured Neutralization IC50 (RSV subtype A) for the entries that follow.

Neutralization IC50 (RSV subtype A) for ADI-41460 (antibody, V domains shown) VH: QVTLKESGPALVKPTQTLTLTCTFSGFSLNTRGMCVSWVRQPPGKALEWLARIDWDDDKNYSTSLRTRLTISKDTSRNQVVLAMANMDPVDTATYYCARCARYDRSGYYVWYLDSWGQGTLVTVSS VL: DIQMTQSPSSLSASVGDRVTITCRASQTIASYLNWYQQKPGKAPKLLIYVASTLQSGVPSRFSGSGSGTDFTLTISSLQPEDFATYYCQQSYSLTQWTFGQGTKVEIK ? > 25 µg/mL

Neutralization IC50 (RSV subtype A) for ADI-41526 (antibody, V domains shown) VH: QVQLVQSGAEVKKPGASVKVSCEASGYTFTDYYMHWVRQAPGQGLEWMGWINPNSGVTKIAQNFQGRVTMTRDTSITTAYMDLSRLRSDDTAVYYCARVVDGDYDNWFDFWGQGTLVTVSS VL: SYVLTQPPSASGTPGQRVTISCSGSTSNIGTNTVNWYQQPPGMAPKLLIYANNQRPSGVPDRFSGSKSGTSASLAISGLQSEDEADYHCAVWDDSLPGWVFGGGTKLTVL ? > 25 µg/mL

Neutralization IC50 (RSV subtype A) for ADI-41550 (antibody, V domains shown) VH: QVQLVQSGAEVKMPGASVRVSCKASGYTLGSHGITWVRQAPGQGLEWMGWISANNFNTHYAQKFQGRVTMTTDTSTSTAYMELRSLRSDDTAVYYCAREVMGHMVETISFDYWGQGTLVTVSS VL: QPVLTQPPSVSVAPGQTARITCGGNNIGSESVHWYQQKPGQAPVLVVHDDSDRPSGIPERFSGSNSGNTATLTISRVEAGDEADYYCQVWDFTPDHPVFGGGTKVTVL ? > 25 µg/mL
